testedTarget: T1, cyno CD137 (cynomolgus monkey, UniProt Q07011 24-186 (human entry), limits assumed)
T1 construct: also called cynomolgus monkey CD137
T1 chain: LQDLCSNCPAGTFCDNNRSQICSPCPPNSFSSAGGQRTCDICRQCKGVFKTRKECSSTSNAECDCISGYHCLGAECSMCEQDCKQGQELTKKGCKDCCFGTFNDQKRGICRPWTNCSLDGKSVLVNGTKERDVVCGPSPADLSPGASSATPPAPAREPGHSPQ
testSummary: SPR Biacore T200, IgG captured on protein A, 25 C;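 further: antigens diluted in ACES running buffer at pH 7.4 were flowed over antibodies held on a CM3 chip bearing amine-coupled protein A, with buffer alone serving as blank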
# pKd per entry
// pKd is dimensionless: -log10 of concentration (M)

These solved cases illustrate the format of a correct answer.
| binder | pKd |
| --- | --- |
| dBBDu167/L091 (antibody, V domains shown, IgG format; constant regions not specified) VH: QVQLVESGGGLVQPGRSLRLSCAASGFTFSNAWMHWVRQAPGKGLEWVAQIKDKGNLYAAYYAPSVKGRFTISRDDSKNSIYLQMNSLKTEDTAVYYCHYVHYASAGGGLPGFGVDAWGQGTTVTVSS VL: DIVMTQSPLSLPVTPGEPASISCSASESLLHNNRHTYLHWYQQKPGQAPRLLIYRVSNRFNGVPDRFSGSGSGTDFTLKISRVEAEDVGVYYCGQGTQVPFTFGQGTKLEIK | 5.38 |
| dBBDu186/L098 (antibody, V domains shown, IgG format; constant regions not specified) VH: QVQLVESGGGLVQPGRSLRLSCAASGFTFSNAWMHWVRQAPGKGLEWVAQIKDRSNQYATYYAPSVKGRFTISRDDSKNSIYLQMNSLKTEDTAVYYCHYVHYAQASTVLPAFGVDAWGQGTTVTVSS VL: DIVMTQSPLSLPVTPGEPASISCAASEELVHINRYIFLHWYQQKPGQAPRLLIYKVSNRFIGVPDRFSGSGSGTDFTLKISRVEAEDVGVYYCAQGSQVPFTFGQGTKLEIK | 3.87 |
| dBBDu189/L119 (antibody, V domains shown, IgG format; constant regions not specified) VH: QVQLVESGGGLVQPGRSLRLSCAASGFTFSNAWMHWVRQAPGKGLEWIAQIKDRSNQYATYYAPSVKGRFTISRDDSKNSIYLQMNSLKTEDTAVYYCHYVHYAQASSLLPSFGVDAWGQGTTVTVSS VL: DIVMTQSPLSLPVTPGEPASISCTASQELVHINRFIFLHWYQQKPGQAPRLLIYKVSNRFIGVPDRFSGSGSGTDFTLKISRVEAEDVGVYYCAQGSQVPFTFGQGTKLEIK | 4.45 |

input: What does the data say about its pKd? Entry: dBBDu193/L132 (antibody, V domains shown, IgG format; constant regions not specified; also called dBBDu_193 dBBDu.L132) VH: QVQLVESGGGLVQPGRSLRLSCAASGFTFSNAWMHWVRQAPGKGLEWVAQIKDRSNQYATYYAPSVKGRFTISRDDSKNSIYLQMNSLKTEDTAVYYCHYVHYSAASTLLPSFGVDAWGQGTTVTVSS VL: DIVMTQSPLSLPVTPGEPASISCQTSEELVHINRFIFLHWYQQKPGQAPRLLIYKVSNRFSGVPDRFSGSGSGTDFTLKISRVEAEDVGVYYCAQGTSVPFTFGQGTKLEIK
output: 3.12
